# credit: the supplement of paper PMC10567573

B1: ELF3 (parent)
chain: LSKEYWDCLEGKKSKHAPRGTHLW

Variants of: B1
method-notes: protein stability index of a GFP-peptide fusion (GPS, HEK-293T) (PSI 1-6); higher = more stable;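 further: lentivirally expressed fusions sorted by FACS into six bins by GFP to DsRed ratio, PSI derived from sequencing read proportions per bin multiplied by bin number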
condition-set: c terminus: a fixed tail appended
Decide using protein stability index: a value greater than or equal to 3 is 1, a smaller one is 0.

(Q) Given P18A , state whether its protein stability index is at least 3.
(A) 0

(Q) Given S2A , state whether its protein stability index is at least 3.
(A) 0

(Q) Given K12H , state whether its protein stability index is at least 3.
(A) 0

(Q) Given S2Y , state whether its protein stability index is at least 3.
(A) 0

(Q) Given D7C , state whether its protein stability index is at least 3.
(A) 0

(Q) Given G11I , state whether its protein stability index is at least 3.
(A) 0

(Q) Given L23G , state whether its protein stability index is at least 3.
(A) 1

(Q) Given P18I , state whether its protein stability index is at least 3.
(A) 0

(Q) Given L23A , state whether its protein stability index is at least 3.
(A) 1

(Q) Given E4T , state whether its protein stability index is at least 3.
(A) 0

(Q) Given L23S , state whether its protein stability index is at least 3.
(A) 1

(Q) Given S2L , state whether its protein stability index is at least 3.
(A) 0

(Q) Given G11P , state whether its protein stability index is at least 3.
(A) 0

(Q) Given G20T , state whether its protein stability index is at least 3.
(A) 0

(Q) Given L9C , state whether its protein stability index is at least 3.
(A) 1

(Q) Given Y5S , state whether its protein stability index is at least 3.
(A) 1

(Q) Given R19L , state whether its protein stability index is at least 3.
(A) 0

(Q) Given W6G , state whether its protein stability index is at least 3.
(A) 0

(Q) Given L23T , state whether its protein stability index is at least 3.
(A) 1

(Q) Given R19E , state whether its protein stability index is at least 3.
(A) 1
